B1: glmS ribozyme (parent)
chain: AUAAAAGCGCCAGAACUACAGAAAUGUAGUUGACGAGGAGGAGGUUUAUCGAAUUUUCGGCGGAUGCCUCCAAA

- Variants of: B1
- experimentSummary: self-cleavage kobs at 40 uM GlcN6P; higher = faster cleavage; RNA array
- conditionDetails: with glucosamine-6-phosphate
Variants at the floor of the assay were thinned out.
Entries and their self-cleavage kobs at 40 uM GlcN6P
measuredAttribute: self-cleavage kobs at 40 uM GlcN6P

>>> result("G60U U65A")
"< 1e-05 s⁻¹"
>>> result("C34U U57C")
"< 1e-05 s⁻¹"
>>> result("A33G A39U G41C")
"< 1e-05 s⁻¹"
>>> result("A53C G63U C67G U69G")
"< 1e-05 s⁻¹"
>>> result("U45A U47A")
"0.00126 s⁻¹"
>>> result("A12U A42U G59C")
"< 1e-05 s⁻¹"
>>> result("A39U C70U")
"0.000786 s⁻¹"
>>> result("A6C G7U A12U A15U")
"< 1e-05 s⁻¹"
>>> result("G32A A36C A42G C70G")
"< 1e-05 s⁻¹"
>>> result("G29A G59U G63A A64U")
"< 1e-05 s⁻¹"
>>> result("A12U U47G")
"0.000706 s⁻¹"
